- target.entity: T1, human MCAM expressed on CHO cells (full length human MCAM gene) (human, UniProt P43121 24-646)
- T1 construct: also called hMCAM expressing CHO cells; CD146
- T1 chain: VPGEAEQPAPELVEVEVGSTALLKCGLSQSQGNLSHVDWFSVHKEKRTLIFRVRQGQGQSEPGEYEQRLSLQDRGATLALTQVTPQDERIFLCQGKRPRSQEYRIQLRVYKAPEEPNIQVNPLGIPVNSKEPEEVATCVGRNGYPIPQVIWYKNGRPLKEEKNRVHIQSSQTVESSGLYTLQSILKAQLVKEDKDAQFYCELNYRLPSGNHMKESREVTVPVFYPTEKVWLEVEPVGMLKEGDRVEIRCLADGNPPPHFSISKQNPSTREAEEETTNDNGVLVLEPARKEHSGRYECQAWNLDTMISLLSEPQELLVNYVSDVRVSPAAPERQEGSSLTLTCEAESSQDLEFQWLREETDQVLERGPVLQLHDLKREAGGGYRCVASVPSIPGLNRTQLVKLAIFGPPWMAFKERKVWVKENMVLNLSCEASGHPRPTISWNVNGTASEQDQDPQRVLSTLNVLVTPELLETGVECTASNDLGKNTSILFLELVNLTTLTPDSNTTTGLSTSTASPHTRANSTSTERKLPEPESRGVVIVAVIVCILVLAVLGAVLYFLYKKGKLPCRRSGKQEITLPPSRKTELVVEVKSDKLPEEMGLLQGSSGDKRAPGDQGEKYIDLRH
- method.summary: laminin/FACS assay: blocking of recombinant laminin 411 binding to hMCAM expressing CHO cells, relative to rodent 2120, Expt#1
observation.type: Fold over rodent (Blocking) (fold)

{"columns": ["binder", "reading.unit", "quantitative.readout"],
 "data": [
  ["humanized anti-MCAM antibody h2120_VH1 + h2120_VL2 (antibody, V domains shown, Human IgG1 / human kappa; also called h2120VH1VL2; Standard VH + aggressive VL) VH: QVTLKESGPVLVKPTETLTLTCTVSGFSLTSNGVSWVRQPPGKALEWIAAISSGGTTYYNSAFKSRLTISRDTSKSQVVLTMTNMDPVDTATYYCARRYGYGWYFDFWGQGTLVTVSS VL: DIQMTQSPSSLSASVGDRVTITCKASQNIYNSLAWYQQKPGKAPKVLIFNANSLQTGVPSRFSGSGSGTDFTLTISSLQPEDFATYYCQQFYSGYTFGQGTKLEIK", "fold", 4.6]
]}
